# Tested on: KB
# assay: Cytotoxicity against KB cell line
# Type: functional
# conditionsUsed: Homo sapiens, read-out: TD50 (the source's name)
Threshold 40 µM. CC50 below it: Criterion met. CC50 at it or above: Criterion not met.

molecule="COC(=O)[C@@H](N)CCCCNC(=O)[C@@H](C)[C@H]1CC[C@H]2C3CC=C4C[C@@H](O)CC[C@]4(C)[C@H]3CC[C@]12C (stereo partly specified)" classlabel="Criterion not met"
molecule="C[C@H](CNCCCCC(=O)O)[C@H]1CC[C@H]2C3CC=C4C[C@@H](O)CC[C@]4(C)[C@H]3CC[C@]12C (stereo partly specified)" classlabel="Criterion not met"
molecule="COC(=O)CCNC(=O)[C@@H](C)[C@H]1CC[C@H]2C3CC=C4C[C@@H](OC(C)=O)CC[C@]4(C)[C@H]3CC[C@]12C (stereo partly specified)" classlabel="Criterion not met"
molecule="C[C@H](CNCCCCCCC(=O)O)[C@H]1CC[C@H]2C3CC=C4C[C@@H](O)CC[C@]4(C)[C@H]3CC[C@]12C (stereo partly specified)" classlabel="Criterion not met"
molecule="COC(=O)CCCNC[C@@H](C)[C@H]1CC[C@H]2C3CC=C4C[C@@H](O)CC[C@]4(C)[C@H]3CC[C@]12C (stereo partly specified)" classlabel="Criterion met"

Now consider the entry below.
stdin: Determine if `COc1cc([C@@H]2c3cc4c(cc3[C@H](O)[C@H]3COC(=O)[C@H]23)OCO4)cc(OC)c1OC` shows CC50 strictly lower than 40 µM.
stdout: Criterion met

* * *

# Test system: KB
# assay: Cytotoxicity against KB cell line
# Format: functional
# conditionsUsed: Homo sapiens, read-out: TD50 (the source's name)
testReadout: CC50 (µM)
Give just the number in µM; leave the unit off.

compound="C[C@H](C(=O)NCCCCCC(=O)O)[C@H]1CC[C@H]2C3CC=C4C[C@@H](O)CC[C@]4(C)[C@H]3CC[C@]12C (stereo partly drawn)" testreadout=CC50 val=303

Now consider the entry below.
stdin: Lab request: please report CC50 under test system KB for COC(=O)CCNC[C@@H](C)[C@H]1CC[C@H]2C3CC=C4C[C@@H](OC(C)=O)CC[C@]4(C)[C@H]3CC[C@]12C (stereo partly drawn)
stdout: 17.4

* * *

# key: entry, value: CC50
# Test system: KB
# assay: Cytotoxicity against KB cell line
# Format: functional
# conditionsUsed: Homo sapiens, read-out: TD50 (the source's name)
Give just the number in µM; leave the unit off.

Completed entries (count: 2):
molecule="C[C@H](C(=O)NCCC[C@H](N)C(=O)O)[C@H]1CC[C@H]2C3CC=C4C[C@@H](O)CC[C@]4(C)[C@H]3CC[C@]12C (stereo partly drawn)" assaysystem=KB val=651
molecule="C[C@H](C(=O)NCCC(=O)O)[C@H]1CC[C@H]2C3CC=C4C[C@@H](O)CC[C@]4(C)[C@H]3CC[C@]12C (stereo partly drawn)" assaysystem=KB val=615

Now consider the entry below.
stdin: Name the recorded CC50 for COC(=O)CCCCNC[C@@H](C)[C@H]1CC[C@H]2C3CC=C4C[C@@H](OC(C)=O)CC[C@]4(C)[C@H]3CC[C@]12C (stereo partly drawn) .
stdout: 26.1

* * *

# System: KB
# assay: Cytotoxicity against KB cell line
# Assay type: functional
# conditionsUsed: Homo sapiens, read-out: TD50 (the source's name)
testReadout: CC50 (µM)
Give just the number in µM; leave the unit off.

compound="C[C@H](CNC[C@H](NC(=O)OC(C)(C)C)C(=O)O)[C@H]1CC[C@H]2C3CC=C4C[C@@H](O)CC[C@]4(C)[C@H]3CC[C@]12C (stereo partly drawn)" testreadout=CC50 val=86.1

Now consider the entry below.
stdin: Name the recorded CC50 for CC(=O)O[C@H]1CC[C@@]2(C)C(=CCC3[C@@H]4CC[C@H]([C@H](C)CNCCCC[C@H](NC(=O)OCc5ccccc5)C(=O)OCc5ccccc5)[C@@]4(C)CC[C@@H]32)C1 (stereo partly drawn) .
stdout: 29.8
